TARGET SYSTEM: Adenosine receptor A1 (Homo sapiens)
ASSAY OVERVIEW: Displacement of […] from human adenosine A1 receptor expressed in CHO cells at 10 uM
Type: cell-based
Give inhibition for every item shown.

Task item: Tell me its inhibition given Cc1ccc(S(=O)(=O)n2cc(CCOc3nc(N)c4ncn([C@@H]5O[C@H](CO)[C@@H](O)[C@H]5O)c4n3)c3cc(Br)ccc32)cc1 as the entry.
Reply: 38%

Task item: Tell me its inhibition given Cc1ccc(S(=O)(=O)n2cc(CCOc3nc(N)c4ncn([C@@H]5O[C@H](CO)[C@@H](O)[C@H]5O)c4n3)c3ccccc32)cc1 as the entry.
Reply: 39%

Task item: Tell me its inhibition given Cc1ccc(S(=O)(=O)n2c(CCOc3nc(N)c4ncn([C@@H]5O[C@H](CO)[C@@H](O)[C@H]5O)c4n3)cc3ccccc32)cc1 as the entry.
Reply: 47%

Task item: Tell me its inhibition given Nc1nc(OCCC2CCCCC2)nc2c1ncn2[C@@H]1O[C@H](CO)[C@@H](O)[C@H]1O as the entry.
Reply: 36%

###

TARGET SYSTEM: Adenosine receptor A2b (Homo sapiens, UniProt P29275)
Sequence (P29275 whole entry): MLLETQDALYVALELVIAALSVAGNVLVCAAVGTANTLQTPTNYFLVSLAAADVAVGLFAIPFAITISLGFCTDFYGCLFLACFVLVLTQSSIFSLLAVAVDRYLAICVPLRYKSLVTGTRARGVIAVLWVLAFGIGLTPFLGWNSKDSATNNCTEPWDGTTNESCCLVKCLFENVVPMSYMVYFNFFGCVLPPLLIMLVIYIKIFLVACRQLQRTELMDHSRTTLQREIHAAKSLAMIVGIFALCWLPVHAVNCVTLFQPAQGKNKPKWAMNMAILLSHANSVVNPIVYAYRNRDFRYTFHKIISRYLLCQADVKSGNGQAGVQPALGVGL
ASSAY OVERVIEW: Agonist activity at human adenosine A2B receptor expressed in CHO cells assessed as stimulation of cAMP production
Give EC50 for every item shown.
Unit nM implied. Number only.

Task item: Tell me its EC50 given COc1ccc2[nH]cc(CCOc3nc(N)c4ncn([C@@H]5O[C@H](CO)[C@@H](O)[C@H]5O)c4n3)c2c1 as the entry.
Reply: 1250

Task item: Tell me its EC50 given Nc1nc(OCCc2c[nH]c3ccc(O)cc23)nc2c1ncn2[C@@H]1O[C@H](CO)[C@@H](O)[C@H]1O as the entry.
Reply: 896

Task item: Tell me its EC50 given CCNc1nc(OCCc2c[nH]c3ccccc23)nc2c1ncn2[C@@H]1O[C@H](CO)[C@@H](O)[C@H]1O as the entry.
Reply: 3270

Task item: Tell me its EC50 given Nc1nc(OCCc2c[nH]c3ccc(Br)cc23)nc2c1ncn2[C@@H]1O[C@H](CO)[C@@H](O)[C@H]1O as the entry.
Reply: 365

Task item: Tell me its EC50 given Nc1nc(OCCc2c[nH]c3cc(Cl)ccc23)nc2c1ncn2[C@@H]1O[C@H](CO)[C@@H](O)[C@H]1O as the entry.
Reply: 216

Task item: Tell me its EC50 given Nc1nc(OCCc2c[nH]c3ccc(Cl)cc23)nc2c1ncn2[C@@H]1O[C@H](CO)[C@@H](O)[C@H]1O as the entry.
Reply: 2180

Task item: Tell me its EC50 given Nc1nc(OCCc2cc[nH]c2)nc2c1ncn2[C@@H]1O[C@H](CO)[C@@H](O)[C@H]1O as the entry.
Reply: 2580
